# Tested on: ACHN renal
# RUN_DESCRIPTION: NCI tumour cell line growth inhibition, 48 h
Kindly supply the reported TGI values for the records listed here.

O=Cc1ccc(-c2cccc([N+](=O)[O-])c2)s1; > 100 µM
Cc1ccc(/C(O)=C/c2nc3ccccc3[nH]c2=O)c(C)c1; 30 µM
CN(C)CCNC(=O)c1cc(-c2nccn2C)nc2ccccc12; > 100 µM
CC(C)c1ccc2[nH]c(O)c(C3=Nc4ccccc4C3=O)c2c1; 18.6 µM

Batch of 3 compounds: report TGI for each.
1. CCN1C[C@]2(C)CC[C@H](OCc3ccccc3)C34C5C[C@@H]6CC[C@](O)(C(C[C@@H]32)C14)C5[C@H]6OCc1ccccc1 (stereo not given in full)
2. Clc1ccccc1-c1nnc2c(-c3ccccc3)nc3ccccc3n12
3. COc1ccc2nc3ccc(OC)cc3c(SCC3CO3)c2c1 (stereo not given)

Result:
1: > 100 µM; 2: > 100 µM; 3: 21.7 µM

For every item below, please supply its TGI.
1. CC1=C(C(=O)Nc2ccc(F)c(Cl)c2)C(c2cccc(Oc3ccccc3)c2)NC(=O)N1 (stereo not given)
2. Nc1cccc(C#Cc2cccc(C#Cc3cccc(N)n3)n2)n1
3. COC(=O)[C@@H](C)C[C@H](Cc1ccccc1)NC(=O)c1csc([C@@H](C[C@H](C(C)C)N(C)C(=O)C2(NC(=O)[C@H]3CCCCN3C)CC2)OC(C)=O)n1

Result:
1: 28.4 µM; 2: > 100 µM; 3: > 33.3 µM

Reference source for all entries: PubChem BioAssay (NCI)
